Source of measurements: PubChem BioAssay (NCI)

# Test system: HOP-92 NSCLC
# test.description: NCI-60 one-dose screen, 48 h (100 = growth as untreated, 0 = no growth, -100 = all killed)
# condition.context: 10 µM
This is part of a sample that, as a whole, favours compounds with a hit. Of some 83,000 tested, about 20% had one in any assay.
Outcome: Satisfied for growth of at least 60%; Not satisfied for anything lower.

Completed entries (count: 4):
{"mol": "COc1cc(-c2nc3cc(Cl)c(Cl)cc3[nH]2)ccc1OCC(=O)NN", "class.label": "Satisfied"}
{"mol": "COCc1cc2c(cc1Br)OCO2", "class.label": "Satisfied"}
{"mol": "COc1ccc(Nc2nc(NCc3ccccc3)c3ccccc3n2)cc1", "class.label": "Not satisfied"}
{"mol": "CS(=O)(=O)Nc1ccc([N+](=O)[O-])cc1Oc1ccccc1", "class.label": "Not satisfied"}

Threshold query (growth >= 60%) on "O=S(=O)(O)C1(O)CCCCC1"
Satisfied

Threshold query (growth >= 60%) on "COc1cc(Cn2c(-c3ccccc3)cc3c2-c2oncc2CC3)cc(OC)c1"
Not satisfied
